# Test system: Penicillium expansum EPS26
# protocol_notes: MIC, antifungal growth inhibition in microtiter plates (PDB)
# Type: cell-based
# test_settings: Pe, 22°C, seven days, OD 600 nm, lowest concentration with no growth, given as interval of tested concentrations, three replicates, experiment repeated twice
compounds and their reported MIC

Record excerpt, results attached:
chem_smiles=CCCCCC(=O)NCCCC[C@H](NC(=O)[C@H](Cc1ccccc1)NC(=O)[C@H](CC(C)C)NC(=O)[C@H](CCCCN)NC(=O)[C@H](CCCCN)NC(C)=O)C(=O)N[C@@H](CCCCN)C(=O)N[C@H](C(=O)N[C@@H](CC(C)C)C(=O)N[C@@H](CCCCN)C(=O)N[C@@H](Cc1ccc(O)cc1)C(=O)N[C@@H](CC(C)C)C(N)=O)[C@@H](C)CC reported="6.2 to 12.5 µM"
chem_smiles=CCCC(=O)N[C@@H](CCCCN)C(=O)N[C@@H](CCCCN)C(=O)N[C@@H](CC(C)C)C(=O)N[C@@H](Cc1ccccc1)C(=O)N[C@@H](CCCCN)C(=O)N[C@@H](CCCCN)C(=O)N[C@H](C(=O)N[C@@H](CC(C)C)C(=O)N[C@@H](CCCCN)C(=O)N[C@@H](Cc1ccc(O)cc1)C(=O)N[C@@H](CC(C)C)C(N)=O)[C@@H](C)CC reported="6.2 to 12.5 µM"

With those in mind, consider the next compound.
Specify MIC for CCCCCC(=O)NCCCC[C@H](NC(=O)[C@@H](NC(=O)[C@H](CCCCN)NC(=O)[C@H](CCCCN)NC(=O)[C@H](Cc1ccccc1)NC(=O)[C@H](CC(C)C)NC(=O)[C@H](CCCCN)NC(=O)[C@H](CCCCN)NC(C)=O)[C@@H](C)CC)C(=O)N[C@@H](CCCCN)C(=O)N[C@@H](Cc1ccc(O)cc1)C(=O)N[C@@H](CC(C)C)C(N)=O and stop.
3.1 to 6.2 µM

###

# Tested on: Erwinia amylovora PMV6076
# protocol_notes: MIC, growth inhibition in microtiter plates (TSB)
# Format: cell-based
# test_settings: Ea, 25°C, 48 h, OD 600 nm, lowest concentration with no growth, given as interval of tested concentrations, three replicates, experiment repeated twice
# Method: […] Three replicates for each combination of strain, compound and concentration were used. Microbial growth was determined by optical density measurement at 600 nm (Bioscreen C, Labsystem, Helsinki, Finland). For antibacterial activity microplates were incubated at 25°C with 20 s shaking before hourly absorbance measurement for 48 h. For antifungal activity microplates were incubated at 22°C with 1 min shaking before absorbance measurement that were done every two hours during seven days. […]
molecules and their reported MIC

molecule="CCCC(=O)NCCCC[C@H](NC(=O)[C@H](CCCCN)NC(C)=O)C(=O)N[C@@H](CC(C)C)C(=O)N[C@@H](Cc1ccccc1)C(=O)N[C@@H](CCCCN)C(=O)N[C@@H](CCCCN)C(=O)N[C@H](C(=O)N[C@@H](CC(C)C)C(=O)N[C@@H](CCCCN)C(=O)N[C@@H](Cc1ccc(O)cc1)C(=O)N[C@@H](CC(C)C)C(N)=O)[C@@H](C)CC [BP381, Ac-KK(COC3H7)LFKKILKYL-NH2]" reported="3.1 to 6.2 µM"

Recall the reported MIC of CCCC(=O)NCCCC[C@H](NC(=O)[C@H](Cc1ccc(O)cc1)NC(=O)[C@H](CCCCN)NC(=O)[C@H](CC(C)C)NC(=O)[C@@H](NC(=O)[C@H](CCCCN)NC(=O)[C@H](CCCCN)NC(=O)[C@H](Cc1ccccc1)NC(=O)[C@H](CC(C)C)NC(=O)[C@H](CCCCN)NC(=O)[C@H](CCCCN)NC(C)=O)[C@@H](C)CC)C(N)=O [BP390, Ac-KKLFKKILKYK(COC3H7)-NH2] when tested on Erwinia amylovora PMV6076.
3.1 to 6.2 µM

The measured values listed here are drawn from paper PMC6063448.
